- TARGET DESC: T1, DET1-DET2-spacer-ek-src SH2 (human src SH2 domain fusion protein) (human)
- T1 construct: In the assay it was captured on Protein-G Sepharose through MAB178.1; also called cloned human Src SH2 domain
- T1 chain: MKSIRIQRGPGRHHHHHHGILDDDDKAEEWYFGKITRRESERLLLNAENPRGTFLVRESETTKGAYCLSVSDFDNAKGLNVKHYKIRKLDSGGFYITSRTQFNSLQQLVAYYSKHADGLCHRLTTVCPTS
- ASSAY: ELISA-based filter plate competition assay; SH2 fusion captured by MAB178.1, displacement of 0.1 uM biotinylated pY peptide (SEQ ID NO: 13)
[ ]: non-standard residue; d: D form.
ENDPOINT NAME: IC50 (nM)
The answer is to be given in nM; state only the numeric part.

Lookup: // query IC50 value for entry Ac-[(S)‑2‑amino‑3‑(1,3-dihydro-3-hydroxy-1-oxo-isobenzofuran-5-yl)propanoic acid]EEIE-NH2 (Synthetic modified pentapeptide; also called Compound 1)
Found: 250
